target-under-test: Caspase-1 (Homo sapiens, UniProt P29466)
Sequence (P29466 120-297 limits assumed): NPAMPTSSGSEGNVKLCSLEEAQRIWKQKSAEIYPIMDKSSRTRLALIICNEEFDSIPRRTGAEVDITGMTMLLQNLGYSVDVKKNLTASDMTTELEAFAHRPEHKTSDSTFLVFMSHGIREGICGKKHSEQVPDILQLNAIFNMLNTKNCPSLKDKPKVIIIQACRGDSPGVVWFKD
Sequence (P29466 317-404 limits assumed): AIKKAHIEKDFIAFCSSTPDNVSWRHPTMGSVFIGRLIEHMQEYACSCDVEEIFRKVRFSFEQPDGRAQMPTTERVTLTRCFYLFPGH
assay-procedure: Caspase-1 enzyme inhibition (Ki)
Format: biochemical
condition-set: substrate Suc-YVAD-pNA 80 μM, 37° C., pH 7.5
Where a SMILES comes first, the peptide text is derived from it. The star is where a group is joined. Bz = O=C(c1ccccc1)*
property-measured: Ki

[[record]]
compound = "CSC[C@H](NC(=O)c1nccc2ccccc12)C(=O)N1CCC[C@H]1C(=O)N[C@H](C=O)CC(=O)O [Example 20g]"
data_value = "< 10 nM"

[[record]]
compound = "COc1cc(C(=O)N[C@@H](C)C(=O)N2CCC[C@H]2C(=O)N[C@H](C=O)CC(=O)O)cc(Cl)c1O"
data_value = "< 10 nM"

[[record]]
compound = "CC(C)[C@H](NC(=O)c1ccc2c(c1)OCO2)C(=O)N1CCC[C@H]1C(=O)N[C@H](C=O)CC(=O)O"
data_value = "10 to 1000 nM"

[[record]]
compound = "COc1c(Cl)cc(C(=O)N[C@H](C(=O)N2CCN(C(C)=O)C[C@H]2C(=O)N[C@H](C=O)CC(=O)O)C(C)C)cc1Cl [Example 17c]"
data_value = "< 10 nM"

[[record]]
compound = "C[C@H](NC(=O)c1ccc(C(N)=O)cc1)C(=O)N1CCC[C@H]1C(=O)N[C@H](C=O)CC(=O)O"
data_value = "10 to 1000 nM"

[[record]]
compound = "CC(C)[C@H](NC(=O)c1ccccc1)C(=O)N1CCC[C@H]1C(=O)N[C@H](C=O)CC(=O)O [Example 5e] (Bz-Val-Pro-Asp-aldehyde)"
data_value = "10 to 1000 nM"

[[record]]
compound = "C[C@H](NC(=O)c1ccc(N)c(C(F)(F)F)c1)C(=O)N1CCC[C@H]1C(=O)N[C@H](C=O)CC(=O)O [Example 122l]"
data_value = "10 to 1000 nM"


====

target-under-test: UniProt:P29466
assay-procedure: Caspase-1 enzyme inhibition (Ki)
Type: biochemical
condition-set: substrate Suc-YVAD-pNA 80 μM, 37° C., pH 7.5
Reported Ki values for a set of compounds
property-measured: Ki

[[record]]
compound = "CC(C)C[C@@H](C(=O)N[C@H](C=O)CC(=O)O)N1CC[C@@H](NC(=O)c2c(Cl)cccc2Cl)C1=O [Example 32e]"
data_value = "10 to 1000 nM"

[[record]]
compound = "C[C@H](NC(=O)c1cc(Cl)c(N)c(Cl)c1)C(=O)N1CCC[C@H]1C(=O)N[C@H](C=O)CC(=O)O [Example 122g]"
data_value = "< 10 nM"

[[record]]
compound = "C[C@H](NC(=O)c1cccc2ccccc12)C(=O)N1CCC[C@H]1C(=O)N[C@H](C=O)CC(=O)O"
data_value = "< 10 nM"

[[record]]
compound = "Cc1nn(C)c2ncc(C(=O)N[C@H](C(=O)N3CCC[C@H]3C(=O)N[C@H](C=O)CC(=O)O)C(C)C)c(SC(C)C)c12"
data_value = "< 10 nM"

[[record]]
compound = "Cc1ccn2c(=O)c(C(=O)N[C@H](C(=O)N3CCC[C@H]3C(=O)N[C@H](C=O)CC(=O)O)C(C)C)cnc2c1"
data_value = "10 to 1000 nM"

[[record]]
compound = "C[C@H](NC(=O)c1nccc2ccccc12)C(=O)N1CCN(C(N)=O)C[C@H]1C(=O)N[C@H](C=O)CC(=O)O [Example 18c]"
data_value = "10 to 1000 nM"

[[record]]
compound = "C[C@H](NC(=O)c1nccc2ccccc12)C(=O)N1CCNC[C@H]1C(=O)N[C@H](C=O)CC(=O)O [Example 16a]"
data_value = "10 to 1000 nM"

